molecular target: human Nav1.7 (Homo sapiens (Human), UniProt Q15858); test: Nav 1.7 In Vitro PX Assay (PatchXpress whole cell voltage clamp); settings: in-vitro Nav 1.7 PX data
Sequence (Q15858 whole entry): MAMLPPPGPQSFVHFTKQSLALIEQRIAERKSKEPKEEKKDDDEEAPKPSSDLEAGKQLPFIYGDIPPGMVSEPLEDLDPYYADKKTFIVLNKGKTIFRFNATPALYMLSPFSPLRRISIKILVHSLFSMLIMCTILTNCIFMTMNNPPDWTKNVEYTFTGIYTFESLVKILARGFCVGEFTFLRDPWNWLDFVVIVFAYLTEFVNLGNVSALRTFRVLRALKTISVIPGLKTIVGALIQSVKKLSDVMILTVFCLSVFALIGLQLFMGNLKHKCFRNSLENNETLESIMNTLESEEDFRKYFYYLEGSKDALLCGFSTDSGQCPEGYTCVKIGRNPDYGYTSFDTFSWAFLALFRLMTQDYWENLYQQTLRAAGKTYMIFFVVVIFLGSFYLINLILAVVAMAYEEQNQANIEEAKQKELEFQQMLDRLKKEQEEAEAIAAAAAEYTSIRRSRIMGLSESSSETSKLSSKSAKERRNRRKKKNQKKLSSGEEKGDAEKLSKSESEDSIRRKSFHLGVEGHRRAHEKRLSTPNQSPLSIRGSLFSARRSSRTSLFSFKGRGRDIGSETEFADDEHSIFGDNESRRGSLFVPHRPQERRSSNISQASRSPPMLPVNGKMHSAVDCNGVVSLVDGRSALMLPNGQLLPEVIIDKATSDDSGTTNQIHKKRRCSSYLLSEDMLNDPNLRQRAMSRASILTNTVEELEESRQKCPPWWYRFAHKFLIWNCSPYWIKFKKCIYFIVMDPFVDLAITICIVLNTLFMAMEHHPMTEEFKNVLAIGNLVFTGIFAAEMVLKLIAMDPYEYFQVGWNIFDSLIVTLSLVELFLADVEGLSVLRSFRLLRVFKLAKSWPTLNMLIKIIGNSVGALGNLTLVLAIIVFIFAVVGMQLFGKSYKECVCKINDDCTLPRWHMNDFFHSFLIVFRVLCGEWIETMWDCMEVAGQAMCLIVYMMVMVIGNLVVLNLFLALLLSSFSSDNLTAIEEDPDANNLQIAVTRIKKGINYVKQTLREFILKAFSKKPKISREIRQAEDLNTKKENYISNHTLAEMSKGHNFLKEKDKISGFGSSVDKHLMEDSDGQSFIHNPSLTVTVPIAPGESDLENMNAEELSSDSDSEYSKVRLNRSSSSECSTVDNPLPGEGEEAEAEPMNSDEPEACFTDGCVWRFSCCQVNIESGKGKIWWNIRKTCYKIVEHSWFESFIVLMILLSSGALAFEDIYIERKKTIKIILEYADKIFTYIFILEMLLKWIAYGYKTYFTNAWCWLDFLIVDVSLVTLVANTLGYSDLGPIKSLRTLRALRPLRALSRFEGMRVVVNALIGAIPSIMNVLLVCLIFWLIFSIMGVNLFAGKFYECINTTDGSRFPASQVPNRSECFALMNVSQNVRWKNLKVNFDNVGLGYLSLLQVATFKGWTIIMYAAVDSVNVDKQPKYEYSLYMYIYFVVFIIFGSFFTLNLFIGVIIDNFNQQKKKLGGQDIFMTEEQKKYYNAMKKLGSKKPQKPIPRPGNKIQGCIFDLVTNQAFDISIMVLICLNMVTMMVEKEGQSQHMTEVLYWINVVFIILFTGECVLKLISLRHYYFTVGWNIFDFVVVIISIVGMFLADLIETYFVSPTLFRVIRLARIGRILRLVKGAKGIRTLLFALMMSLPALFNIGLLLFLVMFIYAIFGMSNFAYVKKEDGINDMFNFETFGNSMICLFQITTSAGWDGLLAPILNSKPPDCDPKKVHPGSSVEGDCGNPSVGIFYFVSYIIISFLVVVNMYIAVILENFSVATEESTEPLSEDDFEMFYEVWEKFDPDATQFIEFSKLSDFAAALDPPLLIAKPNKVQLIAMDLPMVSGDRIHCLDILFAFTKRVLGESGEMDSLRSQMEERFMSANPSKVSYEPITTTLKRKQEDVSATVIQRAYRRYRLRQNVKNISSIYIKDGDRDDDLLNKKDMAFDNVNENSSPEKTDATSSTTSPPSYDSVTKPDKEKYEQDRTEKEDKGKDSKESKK
With a cut-off of 50 nM, any IC50 strictly below it is called 1; any IC50 meeting it or above is called 0.

SUBSTANCE SMILES | CATEGORY
CNC(=O)N(c1ccc(S(=O)(=O)Nc2ccon2)cn1)c1cc(F)c(-c2cc(OC)cc(C(F)(F)F)c2)cc1OC | 1
CNC(=O)N(c1ccc(S(=O)(=O)Nc2ccncn2)cn1)c1cc(Cl)c(-c2ccc(F)c(C(F)(F)F)c2)cc1OC | 1
CNC(=O)N(c1ccc(S(=O)(=O)Nc2ccon2)cn1)c1cc(-c2cccc(C(F)(F)F)c2)c(Cl)cc1OC | 0
CNC(=O)N(c1ccc(S(=O)(=O)Nc2ccon2)cn1)c1cc(Cl)c(-c2cc(OC)c(F)c(OC)c2)cc1OC | 0
CNC(=O)N(c1ccc(S(=O)(=O)Nc2ncccn2)cn1)c1cc(F)c(-c2ccc(Cl)c(Cl)c2)cc1OC | 1
CNC(=O)N(c1ccc(S(=O)(=O)Nc2ncccn2)cn1)c1cc(Cl)c(-c2ccc(F)c(C(F)(F)F)c2)cc1OC | 1
CNC(=O)N(c1ccc(S(=O)(=O)Nc2ccon2)cn1)c1cc(Cl)c(-c2cccc(OC(C)C)c2)cc1OC | 0
COc1cc(-c2cc(OC)c(N(C(N)=O)c3ccc(S(=O)(=O)Nc4ccon4)cn3)cc2Cl)cc(C(F)(F)F)c1 | 1
CNC(=O)N(c1ccc(S(=O)(=O)Nc2ccon2)cn1)c1cc(Cl)c(-c2ccc(Cl)c(C#N)c2)cc1OC | 0
CNC(=O)N(c1ccc(S(=O)(=O)Nc2nocc2C)cn1)c1cc(F)c(-c2ccc(F)c(OC(F)(F)F)c2)cc1OC | 0
COc1cc(-c2cc(Cl)cc(C#N)c2)c(Cl)cc1N(C(N)=O)c1ccc(S(=O)(=O)Nc2ccon2)cn1 | 1
CNC(=O)N(c1ccc(S(=O)(=O)Nc2ncccn2)cn1)c1cc(F)c(-c2cc(OC)cc(C(F)(F)F)c2)cc1OC | 1
CCOc1cc(-c2cc(OC)c(N(C(=O)NC)c3ccc(S(=O)(=O)Nc4ccon4)cn3)cc2Cl)ccc1F | 1
CNC(=O)N(c1ccc(S(=O)(=O)Nc2ccon2)cn1)c1cc(F)c(-c2ccc(Cl)c(C)c2)cc1OC | 0
CNC(=O)N(c1ccc(S(=O)(=O)Nc2ccon2)cn1)c1cc(Cl)c(-c2ccc(F)c(F)c2)cc1OC | 0
CNC(=O)N(c1ccc(S(=O)(=O)Nc2ccon2)cn1)c1cc(F)c(-c2ccc(F)c(F)c2)cc1OC | 0
CNC(=O)N(c1ccc(S(=O)(=O)Nc2ccon2)cn1)c1cc(Cl)c(-c2cccc(C(F)(F)F)c2)cc1OC | 1
CNC(=O)N(c1ccc(S(=O)(=O)Nc2ccon2)cn1)c1cc(F)c(-c2cc(Cl)c(F)c(OC)c2)cc1OC | 1
COc1cc(-c2cccc(OCC(F)(F)F)c2)c(Cl)cc1N(C(N)=O)c1ccc(S(=O)(=O)Nc2ccon2)cn1 | 1
COc1cc(-c2cccc(C(F)(F)F)c2)c(Cl)cc1N(C(N)=O)c1ccc(S(=O)(=O)Nc2ccon2)cn1 | 1
CNC(=O)N(c1ccc(S(=O)(=O)Nc2cnsn2)cn1)c1cc(Cl)c(-c2ccc(F)c(C(F)(F)F)c2)cc1OC | 1
COC(=O)N(c1ccc(S(=O)(=O)Nc2ccon2)cn1)c1cc(Cl)c(-c2cccc(C(F)(F)F)c2)cc1OC | 0
CNC(=O)N(c1ccc(S(=O)(=O)Nc2cccnn2)cn1)c1cc(F)c(-c2ccc(Cl)c(C)c2)cc1OC | 0
CNC(=O)N(c1ccc(S(=O)(=O)Nc2ccon2)cn1)c1ccc(-c2ccc(Cl)c(C)c2)cc1OC | 0
CNC(=O)N(c1ccc(S(=O)(=O)Nc2ccon2)cn1)c1cc(Cl)c(-c2cc(Cl)cc(OC)c2)cc1OC | 1
CNC(=O)N(c1ccc(S(=O)(=O)Nc2cccnn2)cn1)c1cc(Cl)c(-c2cc(F)c(F)c(F)c2)cc1OC | 0
CNC(=O)N(c1ccc(S(=O)(=O)Nc2ccon2)cn1)c1cc(F)c(-c2ccc(Cl)c(OC)c2)cc1OC | 0
CNC(=O)N(c1ccc(S(=O)(=O)Nc2ccon2)cn1)c1cc(Cl)c(-c2cc(OC)cc(OC)c2)cc1OC | 0

The origin of these recorded values is patent US10668067B2.
